Would you kindly list IC50 for each of these compounds?
Target or system: recombinant human 15-PGDH (Homo sapiens, UniProt P15428)
Construct: purchased R&D Systems
Sequence (P15428 whole entry): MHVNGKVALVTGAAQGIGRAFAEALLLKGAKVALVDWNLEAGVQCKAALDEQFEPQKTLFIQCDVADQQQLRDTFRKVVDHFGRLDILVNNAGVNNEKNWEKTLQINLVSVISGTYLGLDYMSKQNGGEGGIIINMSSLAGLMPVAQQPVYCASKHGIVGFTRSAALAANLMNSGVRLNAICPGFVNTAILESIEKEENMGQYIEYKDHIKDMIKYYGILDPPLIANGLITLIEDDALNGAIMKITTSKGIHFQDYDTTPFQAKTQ
Protocol text: 15-PGDH enzyme inhibition test
Format: biochemical
Test conditions: 4 nM recombinant human 15-PGDH, 30 μM PGE2, 1 mM NAD+, 60 minutes after starting the reaction; read-out: IC50 Value

# compound COCCN1Cc2cc(N3CCOc4cc(C(=O)N5CCC(F)(F)CC5)cnc43)ccc2C1=O ; its IC50 = < 10 nM

# compound CS(=O)(=O)c1ccc(N2CCOc3cc(C(=O)N4CCCCC4)cnc32)cc1 ; its IC50 = 10 to 100 nM

# compound CCn1nc2cc(N3CCCc4cc(C(=O)N5CCC[C@H](C)C5)cnc43)ccn2c1=O ; its IC50 = < 10 nM

# compound CN1Cc2cc(N3CCOc4cc(C(=O)C5CCC(F)(F)CC5)cnc43)ccc2C1=O ; its IC50 = < 10 nM

# compound Cn1nc2cc(N3CCCOc4cc(C(=O)N5CCC5)cnc43)ccn2c1=O ; its IC50 = < 10 nM

# compound Cn1nc2cc(N3CCCOc4cc(C(=O)N5CCC[C@@H](F)C5)cnc43)ccn2c1=O ; its IC50 = < 10 nM

# compound CN1Cc2cc(N3CCOc4cc(C(=O)N5CCC[C@H](C(F)F)C5)cnc43)ccc2C1=O ; its IC50 = < 10 nM

# compound O=C1NCc2cc(N3CCCc4cc(C(=O)N5CCC(F)(F)CC5)cnc43)ccc21 ; its IC50 = < 10 nM

# compound C#CC1CCN(C(=O)c2cnc3c(c2)OCCN3c2ccn3c(=O)n(C)nc3c2)CC1 ; its IC50 = < 10 nM

# compound CC(C)(O)c1ccc(N2CCOc3c2ccc(C(=O)N2CCCCC2)c3Cl)cc1 ; its IC50 = < 10 nM

# compound COC(=O)c1cc2sc(N3CCOc4cc(C(=O)N5CCCCC5)cnc43)cc2s1 ; its IC50 = < 10 nM

# compound CCn1nc2cc(N3CCCc4cc(C(=O)N5CCC5)cnc43)ccn2c1=O ; its IC50 = < 10 nM

# compound O=C(c1cnc2c(c1)OCCN2c1ccc2c(c1)CN(C1CC1)C2=O)N1CCC(F)(F)CC1 ; its IC50 = < 10 nM

# compound CN1Cc2nc(N3CCOc4cc(C(=O)N5CCCCC5)cnc43)ccc2C1=O ; its IC50 = 10 to 100 nM

# compound COCCN(C)C(=O)c1cnc2c(c1)OCCN2c1ccn2c(=O)n(C)nc2c1 ; its IC50 = < 10 nM

# compound COCn1nc2cc(N3CCCOc4cc(C(=O)N5CCCCC5)cnc43)ccn2c1=O ; its IC50 = < 10 nM

# compound O=C(c1cnc2c(c1)CCCN2c1cc2c(cn1)C(=O)N(C1COC1)C2)N1CCCCC1 ; its IC50 = 10 to 100 nM

# compound O=C(c1cnc2c(c1)OCCN2c1ccc(Br)cc1)N1CCCCC1 ; its IC50 = 10 to 100 nM

# compound O=C(c1cnc2c(c1)OCCN2c1cccc(Cl)c1)N1CCCCC1 ; its IC50 = 10 to 100 nM

# compound Cn1nc2cc(N3CCOc4cc(C(=O)N5C[C@@H]6CC[C@@H](C6)C5)cnc43)ccn2c1=O ; its IC50 = < 10 nM

# compound Cn1nc2cc(N3CCOc4cc(C(O)C5CCCCC5)cnc43)ccn2c1=O (centres unmarked) ; its IC50 = < 10 nM

# compound COC(=O)c1ccc2nc(N3CCOc4cc(C(=O)N5CCCCC5)cnc43)cn2c1 ; its IC50 = > 100 nM

# compound O=C(O)c1ccc(N2CCOc3cc(C(=O)N4CCCCC4)sc32)cc1 ; its IC50 = < 10 nM

# compound O=C(O)c1ccc(N2CCOc3cc(C(=O)N4CC=CCC4)cnc32)cc1 ; its IC50 = < 10 nM

# compound C[C@H]1CCCN(C(=O)c2cnc3c(c2)OCCN3c2ccn3c(=O)n(C)nc3c2)C1 ; its IC50 = < 10 nM

# compound C[C@@H]1CCCN(C(=O)c2cnc3c(c2)OCCN3c2ccc3c(c2)CN(C)C3=O)C1 ; its IC50 = < 10 nM

# compound CCn1nc2cc(N3CCCc4cc(C(=O)N5CCCC[C@H]5C)cnc43)ccn2c1=O ; its IC50 = 10 to 100 nM

# compound CCn1nc2cc(N3CCOc4cc(C(=O)N5CC=CCC5)cnc43)ccn2c1=O ; its IC50 = < 10 nM

# compound O=C(c1cnc2c(c1)CCCN2c1ccn2c(=O)[nH]nc2c1)N1CCCCC1 ; its IC50 = < 10 nM

# compound O=C(O)c1ccccc1N1CCOc2cc(C(=O)N3CCCCC3)cnc21 ; its IC50 = > 100 nM

# compound CCn1nc2cc(N3CCCc4cc(C(=O)N5CCCCC5)cnc43)ccn2c1=O ; its IC50 = < 10 nM

# compound Cn1nc2cc(N3CCCc4cc(C(=O)N5CCc6ccccc6C5)cnc43)ccn2c1=O ; its IC50 = < 10 nM

# compound O=C(c1cnc2c(c1)OCCN2c1ccc2c(=O)[nH]oc2c1)N1CCCCC1 ; its IC50 = < 10 nM

# compound O=C(O)c1ccc(N2CCCc3cc(C(=O)N4CCCCC4)cnc32)cc1 ; its IC50 = < 10 nM

# compound CN1Cc2cc(N3CCOc4cc(C(=O)N5CCCCCC5)cnc43)ccc2C1=O ; its IC50 = < 10 nM
